test: stimulators of nuclear beta-catenin in C2C12, primary screen, imaging, WNT3A-conditioned medium, mouse C2C12, NPC library (AID 1117326); conditions: at 10 µM, hits give high values
Collected nuclear beta-catenin stimulation values appear next to each entry.
metric-name: nuclear beta-catenin stimulation (%)

| compound | metric-name | recorded-number |
| --- | --- | --- |
| CC(C)(Oc1ccc(Cl)cc1)C(=O)OCCCOC(=O)C(C)(C)Oc1ccc(Cl)cc1 | nuclear beta-catenin stimulation | 0.7 |
| CCCc1ccc(C(=O)O)cc1 | nuclear beta-catenin stimulation | -2 |
| Cc1ccc(S(=O)(=O)NC(=O)NC2CCCCC2)cc1 | nuclear beta-catenin stimulation | 0.6 |
| CN(C)CCOC(C)(c1ccccc1)c1ccccn1 (stereo not given) | nuclear beta-catenin stimulation | 1.1 |
| Cc1cc(O)cc2c1O[C@](C)(CCC[C@H](C)CCC[C@H](C)CCCC(C)C)CC2 | nuclear beta-catenin stimulation | -1.3 |
| NS(=O)(=O)c1cc2c(cc1C(F)(F)F)NC(Cc1ccccc1)NS2(=O)=O (stereo not given) | nuclear beta-catenin stimulation | 0.1 |
| O=C1[C@@H]2[C@H]3CC[C@H](C3)[C@@H]2C(=O)N1CCCCN1CCN(c2ncccn2)CC1 | nuclear beta-catenin stimulation | 10 |
| CCC(C(=O)OCCN1CCOC(c2ccccc2)C1C)c1ccccc1 (stereo not given) | nuclear beta-catenin stimulation | 1 |
| CCN(CC)S(=O)(=O)c1ccc(C(=O)O)cc1 | nuclear beta-catenin stimulation | 1.6 |
| NC[C@H]1O[C@H](O[C@@H]2[C@@H](O)[C@@H](O[C@H]3O[C@H](CO)[C@@H](O)[C@H](N)[C@@H]3O)[C@H](N)C[C@@H]2N)[C@H](O)[C@@H](O)[C@H]1O | nuclear beta-catenin stimulation | -1.2 |
| Cc1onc(-c2c(F)cccc2Cl)c1C(=O)Cl | nuclear beta-catenin stimulation | -0.1 |
| O=P(O)(O)C(Sc1ccc(Cl)cc1)P(=O)(O)O | nuclear beta-catenin stimulation | 1.7 |
| CC(C)CCCC(C)CCCC(C)CCCCC(C)CCCC(C)CCCC(C)C (stereo not given) | nuclear beta-catenin stimulation | -1.2 |
| CC(C)=CCC/C(C)=C/CC/C(C)=C/C(=O)OCC(=O)[C@@]1(O)CC[C@H]2[C@@H]3CCC4=CC(=O)C=C[C@]4(C)[C@H]3[C@@H](O)C[C@@]21C | nuclear beta-catenin stimulation | -1 |
| CCc1cc2cc(OC)c(OC)cc2c(Cc2ccccc2)n1 | nuclear beta-catenin stimulation | 7.1 |

* * *

experiment: differential killing of epithelial or mesenchymal cells, primary screen, imaging, PC-3E GFP, TEM4-18 mCherry, co-culture (AID 1345086); conditions: imaging cell counts, at 1 µM, actives lie on both sides, counts scaled to control wells, 1 = unselective;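 also: normalised mesenchymal count divided by normalised epithelial count so high means epithelial killing; cells exposed to compound for 72 h before imaging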

| compound | red/green cell ratio (normalised) |
| --- | --- |
| Fc1ccc([C@@H]2CCNC[C@H]2COc2ccc3c(c2)OCO3)cc1 | 0.99 |
| Nc1ncn([C@@H]2O[C@H](CO)[C@@H](O)[C@H]2O)c(=O)n1 | 0.99 |
| CC(C)Cc1ccc(C(C)C(=O)O)cc1 (stereo unspecified) | 1 |
| Cn1cnc([N+](=O)[O-])c1Sc1ncnc2nc[nH]c12 | 0.98 |
| O=C(O)CCCc1ccccc1 | 1 |
| CN(C)CCC[C@@]1(c2ccc(F)cc2)OCc2cc(C#N)ccc21 | 0.99 |

* * *

assay: growth inhibition of GSK3B-pretreated HCT116 cells – cell-based, CellTiter-Glo, 0.2 to 20 µM (AID 1117336); conditions: HCT116 viability after GSK3B inhibitor, at 20 µM, hits give high values
metric-name: viability decrease (%)

| compound | metric-name | unit-label | recorded-number |
| --- | --- | --- | --- |
| CC(C)CCC[C@@H](C)[C@H]1CC[C@H]2[C@@H]3CC=C4C[C@@H](O)CC[C@]4(C)[C@@H]3CC[C@]12C | viability decrease | % | 26.9 |
| C#C[C@]1(O)CC[C@H]2[C@@H]3CCC4=CC(=O)CC[C@@H]4[C@H]3CC[C@@]21CC | viability decrease | % | -54.4 |
| CCCCCCCCCCCCCC(=O)OC(C)C | viability decrease | % | -8.2 |
| CCCCS(=O)(=O)N[C@@H](Cc1ccc(OCCCCC2CCNCC2)cc1)C(=O)O | viability decrease | % | 96.5 |
| O=S(=O)(O)CC(S)CS (stereo not drawn) | viability decrease | % | -25.4 |
| COc1ccc([C@@H]2CC(=O)c3c(O)cc(O[C@@H]4O[C@H](CO[C@@H]5O[C@@H](C)[C@H](O)[C@@H](O)[C@@H]5O)[C@@H](O)[C@H](O)[C@@H]4O)cc3O2)cc1O | viability decrease | % | -10.2 |
| CCCCCCCCCCCC[N+](C)(C)Cc1ccccc1 | viability decrease | % | 99.3 |
| Nc1nc2ccc(OC(F)(F)F)cc2s1 | viability decrease | % | 32.5 |

* * *

system: R275C; assay: modulators of BK channel variants, profiling panel, selectivity assay, cell-based, U2OS BacMam, thallium flux, beta subunits (AID 1259406); settings: at 30 µM;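 also: initial slope of Thallos dye fluorescence rise after thallium is added; log ratio against the mean of 0.3% DMSO vehicle wells on the same plate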

| molecule | log fold change Tl+ flux |
| --- | --- |
| C[C@H](CCC(=O)O)[C@H]1CC[C@H]2[C@@H]3C(=O)C[C@@H]4CC(=O)CC[C@]4(C)[C@H]3CC(=O)[C@]12C | -0.000869 |
| Cc1onc(-c2ccccc2)c1-c1ccc(S(N)(=O)=O)cc1 | 0.0179 |
| NNC(=O)c1ccncc1 | 0.00765 |
| CCCN1C[C@H](CSC)C[C@@H]2c3cccc4[nH]cc(c34)C[C@H]21 | -0.00135 |
| c1ccc2[nH]c(-c3cscn3)nc2c1 | 0.0284 |
| CN(C)CCOC(c1ccccc1)c1ccccc1 | 0.00435 |
| C[C@H](CS)C(=O)N1CCC[C@H]1C(=O)O | 0.0445 |
| Cn1c(=O)c2[nH]cnc2n(C)c1=O | 0.000907 |
| CC(=O)OCC(=O)[C@@]12OC(C)(C)O[C@@H]1C[C@H]1[C@@H]3C[C@H](F)C4=CC(=O)C=C[C@]4(C)[C@@]3(F)[C@@H](O)C[C@@]12C | -0.038 |
| CC(N=C(NC#N)Nc1ccncc1)C(C)(C)C (stereo unspecified) | 0.000868 |
| CC(CN1c2ccccc2Sc2ccccc21)N(C)C (stereo unspecified) | -0.00748 |
| CC(C)(C)NC[C@H](O)COc1nsnc1N1CCOCC1 | -0.000858 |
| CN(C)CCC[C@@]1(c2ccc(F)cc2)OCc2cc(C#N)ccc21 | -0.0846 |
| CC(=O)S[C@@H]1CC2=CC(=O)CC[C@]2(C)[C@H]2CC[C@@]3(C)[C@@H](CC[C@@]34CCC(=O)O4)[C@H]12 | 0.0437 |
| CN(C)C(=O)Oc1ccc[n+](C)c1 | -0.0114 |
| CC12CC3CC(C)(C1)CC(N)(C3)C2 | 0.00266 |
| CN1CCN(CCCN2c3ccccc3Sc3ccc(C(F)(F)F)cc32)CC1 | -0.157 |
| CC(=O)O[C@]1(C(C)=O)CC[C@H]2[C@@H]3C=C(C)C4=CC(=O)CC[C@]4(C)[C@H]3CC[C@@]21C | -0.0376 |
| CC1(C)O[C@@H]2C[C@H]3[C@@H]4C[C@H](F)C5=CC(=O)C=C[C@]5(C)[C@H]4[C@@H](O)C[C@]3(C)[C@]2(C(=O)CO)O1 | 0.00271 |
| CC(=O)OCC(CCn1cnc2cnc(N)nc21)COC(C)=O | -0.0357 |
| CCCNC(=O)NS(=O)(=O)c1ccc(Cl)cc1 | 0.0359 |
| C[C@]12CCC(=O)C=C1CC[C@@H]1[C@@H]2[C@@H](O)C[C@@]2(C)[C@H]1CC[C@]2(O)C(=O)COC(=O)CCC(=O)O | 0.0834 |
| CC1=C(C(=O)O)N2C(=O)[C@@H](NC(=O)[C@H](N)c3ccccc3)[C@H]2SC1 | -0.0778 |
| CC1=C(CC(=O)O)c2cc(F)ccc2/C1=C\c1ccc(S(C)=O)cc1 (stereo unspecified) | -0.0121 |
| COCCOC(=O)C1=C(C)NC(C)=C(C(=O)OC(C)C)C1c1cccc([N+](=O)[O-])c1 (stereo unspecified) | -0.000869 |
| CCN(CC)CCOC(=O)c1ccc(N)cc1 | -0.00878 |
| CC1Cc2ccccc2N1NC(=O)c1ccc(Cl)c(S(N)(=O)=O)c1 (stereo unspecified) | 0.0209 |
| CN(C)CCOC(c1ccc(Cl)cc1)c1ccccn1 (stereo unspecified) | 0.0106 |
| CC(C)C(=O)Nc1ccc([N+](=O)[O-])c(C(F)(F)F)c1 | -0.0976 |
| C[C@@H]1C[C@H]2[C@@H]3CCC4=CC(=O)C=C[C@]4(C)[C@@]3(F)[C@@H](O)C[C@]2(C)[C@@]1(O)C(=O)CO | 0.0247 |
| CC(=O)OCC(=O)[C@@]1(O)CC[C@H]2[C@@H]3CCC4=CC(=O)CC[C@]4(C)[C@H]3C(=O)C[C@@]21C | 0.0275 |
| CCCc1nc2c(C)cc(-c3nc4ccccc4n3C)cc2n1Cc1ccc(-c2ccccc2C(=O)O)cc1 | -0.0814 |
| O=C1CCC(N2C(=O)c3ccccc3C2=O)C(=O)N1 (stereo unspecified) | 0.0291 |
| Cc1cccc(Nc2ccncc2S(=O)(=O)NC(=O)NC(C)C)c1 | -0.147 |
| NS(=O)(=O)c1cc(C2(O)NC(=O)c3ccccc32)ccc1Cl (stereo unspecified) | -0.0359 |
| O=S(=O)(O)CCS | 0.029 |
